The measured values listed here are drawn from ChEMBL document CHEMBL1817616.

# Test system: HeLa
# TEST NAME: Anticancer activity against human HeLa cells after 48 hrs by MTT assay
# Format: functional, cell-based
ASSAY READOUT: IC50 (µM)
Quick note: give the figure in µM, leave out the unit.

In plain terms, CC(=O)O[C@H]1[C@@H](n2cncn2)C[C@H]2[C@@H]3CC[C@H]4C[C@@H](N(C)Cc5ccccc5)CC[C@]4(C)[C@H]3CC[C@@]21C has a documented IC50 of 18.7

In plain terms, CC(=O)O[C@H]1[C@@H](n2nnc3ccccc32)C[C@H]2[C@@H]3CC[C@H]4C[C@@H](N(C)c5ccccc5)CC[C@]4(C)[C@H]3CC[C@@]21C has a documented IC50 of 10.4

In plain terms, CC(=O)O[C@H]1[C@@H](n2ccnn2)C[C@H]2[C@@H]3CC[C@H]4C[C@@H](N5CCN(C)CC5)CC[C@]4(C)[C@H]3CC[C@@]21C has a documented IC50 of 38.1
